- target: YME1LAAA (monomeric AAA+ domain) (Homo sapiens, UniProt Q96TA2)
- Sequence (Q96TA2 317-588): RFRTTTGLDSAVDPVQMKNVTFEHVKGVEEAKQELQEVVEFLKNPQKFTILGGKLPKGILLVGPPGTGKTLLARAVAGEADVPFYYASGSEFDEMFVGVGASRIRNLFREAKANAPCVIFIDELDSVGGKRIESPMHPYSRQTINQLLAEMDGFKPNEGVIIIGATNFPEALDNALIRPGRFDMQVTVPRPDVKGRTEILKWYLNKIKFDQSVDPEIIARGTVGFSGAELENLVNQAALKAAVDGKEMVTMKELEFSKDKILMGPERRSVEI
- experiment_notes: methyl-TROSY NMR titration
pKd: −log10 of the molar value.
value_kind: pKd

>>> experimental_value("Nc1ncnc2c1ncn2[C@@H]1O[C@H](COP(=O)(O)OP(=O)(O)O)[C@@H](O)[C@H]1O")
5.34

Numbers sourced from paper doi:10.1101/2025.01.30.635686v1.
